STUDY SYSTEM: T1, KDR (1-3) (UniProt P35968 20-327, limits assumed)
T1 construct: domain: KDR (1-3); Soluble KDR (1-3) at 1 ug/ml, captured on anti-KDR antibody MAKD5; also called KDR (1-3) monomer
T1 sequence (P35968 20-327 limits assumed): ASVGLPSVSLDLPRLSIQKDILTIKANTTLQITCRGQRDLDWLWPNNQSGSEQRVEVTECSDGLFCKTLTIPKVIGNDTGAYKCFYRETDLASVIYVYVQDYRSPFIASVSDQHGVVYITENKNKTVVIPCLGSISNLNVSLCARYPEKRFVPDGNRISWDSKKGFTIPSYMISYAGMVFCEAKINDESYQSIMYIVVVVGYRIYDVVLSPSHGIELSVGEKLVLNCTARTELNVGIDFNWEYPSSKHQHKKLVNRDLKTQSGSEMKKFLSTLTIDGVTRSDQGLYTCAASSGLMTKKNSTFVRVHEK
PROCEDURE TEXT: competition ELISA: displacement of biotinylated native VEGF (8-109) from KDR (1-3)
MEASUREMENT KIND: relative binding affinity (ratio to native VEGF (8-109)) (fold)
One number for each entry, in fold.

Answered examples (5):
>  <BINDER>
LK-VRB-22s (ligand) APMAEGGGQNHHEVVKFEDVLRRSSCHPIETLVDIFQEYPDEIEYIFKPSCVPLMRCGGCCNDEMLECVPTEESNITMQIMRIKPHQGQHIGEMSFLQHNKCECRPKKD

>  <UNIT ANNOTATION>
fold

>  <READOUT VALUE>
4

$$$$
>  <BINDER>
LK-VRB-13s (ligand) APMAEGGGQNHHEVVKFEDVYQRSSCHPIETLVDIFQEYPDEIEYIFKPSCVPLMRCGGCCNSEMRECVPTEESNITMQIMRIKPHQGQHIGEMSFLQHNKCECRPKKD

>  <UNIT ANNOTATION>
fold

>  <READOUT VALUE>
14

$$$$
>  <BINDER>
LK-VRB-20s (ligand) APMAEGGGQNHHEVVKFMDVLRRSSCHPIETLVDIFQEYPDEIEYIFKPSCVPLMRCGGCCNSEMRECVPTEESNITMQIMRIKPHQGQHIGEMSFLQHNKCECRPKKD

>  <UNIT ANNOTATION>
fold

>  <READOUT VALUE>
2

$$$$
>  <BINDER>
LK-VRB-1s* (ligand) APMAEGGGQNHHEVVKFEDVLRRSSCHPIETLVDIFQEYPDEIEYIFKPSCVPLMRCGGCCNDEGLECVPTEESNITMQIMRIKPHQGQHIGEMSFLQHNKCECRPKKD

>  <UNIT ANNOTATION>
fold

>  <READOUT VALUE>
1

$$$$
>  <BINDER>
LK-VRB-3s (ligand) APMAEGGGQNHHEVVKIEDVFKRSSCHPIETLVDIFQEYPDEIEYIFKPSCVPLMRCGGCCNDEGLECVPTEESNITMQIMRIKPHQGQHIGEMSFLQHNKCECRPKKD

>  <UNIT ANNOTATION>
fold

>  <READOUT VALUE>
1

$$$$

Lab note: each binder below needs its relative binding affinity (ratio to native VEGF (8-109)) filled in.
1. LK-VRB-19s (ligand) APMAEGGGQNHHEVVKFEDVYRRSSCHPIETLVDIFQEYPDEIEYIFKPSCVPLMRCGGCCNSEMRECVPTEESNITMQIMRIKPHQGQHIGEMSFLQHNKCECRPKKD
2. LK-VRB-15s (ligand) APMAEGGGQNHHEVVKFMDVLQRSSCHPIETLVDIFQEYPDEIEYIFKPSCVPLMRCGGCCNSEMRECVPTEESNITMQIMRIKPHQGQHIGEMSFLQHNKCECRPKKD
3. LK-VRB-11s (ligand) APMAEGGGQNHHEVVKFEDVLQRSYCHPIETLVDIFQEYPDEIEYIFKPSCVPLMRCGGCCNSEMRECVPTEESNITMQIMRIKPHQGQHIGEMSFLQHNKCECRPKKD

result:
[7, 2, 2]

Quick batch: relative binding affinity (ratio to native VEGF (8-109)) for everything below.
1. LK-VRB-4s (ligand, the codon printed for Y25I is CAC (His)) APMAEGGGQNHHEVVKIEDVFERSICHPIETLVDIFQEYPDEIEYIFKPSCVPLMRCGGCCNDEGLECVPTEESNITMQIMRIKPHQGQHIGEMSFLQHNKCECRPKKD
2. LK-VRB-9s (ligand) APMAEGGGQNHHEVVKFMDVYRRSYCHPIETLVDIFQEYPDEIEYIFKPSCVPLMRCGGCCNSEMRECVPTEESNITMQIMRIKPHQGQHIGEMSFLQHNKCECRPKKD
3. LK-VRB-8s* (ligand, 'Y2IL' read as Y21L (codon CTC)) APMAEGGGQNHHEVVKFMDVLQRSYCHPIETLVDIFQEYPDEIEYIFKPSCVPLMRCGGCCNSEMRECVPTEESNITMQIMRIKPHQGQHIGEMSFLQHNKCECRPKKD
4. LK-VRB-24s (ligand) APMAEGGGQNHHEVVKFEDVLRRSSCHPIETLVDIFQEYPDEIEYIFKPSCVPLMRCGGCCNSEMLECVPTEESNITMQIMRIKPHQGQHIGEMSFLQHNKCECRPKKD

result:
1. 1
2. 0.5
3. 0.5
4. 10

For each of the binders below, note its relative binding affinity (ratio to native VEGF (8-109)).
1. LK-VRB-16s (ligand) APMAEGGGQNHHEVVKFMDVYRRSSCHPIETLVDIFQEYPDEIEYIFKPSCVPLMRCGGCCNSEMRECVPTEESNITMQIMRIKPHQGQHIGEMSFLQHNKCECRPKKD
2. LK-VRB-10s (ligand) APMAEGGGQNHHEVVKFMDVYQRSSCHPIETLVDIFQEYPDEIEYIFKPSCVPLMRCGGCCNSEMRECVPTEESNITMQIMRIKPHQGQHIGEMSFLQHNKCECRPKKD
3. LK-VRB-12s (ligand) APMAEGGGQNHHEVVKFEDVYRRSYCHPIETLVDIFQEYPDEIEYIFKPSCVPLMRCGGCCNSEMRECVPTEESNITMQIMRIKPHQGQHIGEMSFLQHNKCECRPKKD

result:
1. 0.6
2. 0.5
3. 0.4

query: # return recorded relative binding affinity (ratio to native VEGF (8-109)) for entry LK-VRB-14s (ligand) APMAEGGGQNHHEVVKFMDVLRRSYCHPIETLVDIFQEYPDEIEYIFKPSCVPLMRCGGCCNSEMRECVPTEESNITMQIMRIKPHQGQHIGEMSFLQHNKCECRPKKD
result: 0.5

The reported numbers originate from patent US20060188503A1.
